Tested on: SIK3
Parameters: species or system human, MV4-11 + K-562 + COLO205 + SK-N-BE2 + OVCAR-8
assay-conditions: read-out: apparent Kd; compound concentrations:100 nM and 1000 nM (sheet 'Samples'); n = 1
List of potency estimated from few doses values.

Look over these answered cases.
compound: Cn1c(=O)c(-c2ccccc2Cl)cc2cnc(NC3CCOCC3)nc21 [RO3303470-000]
potency estimated from few doses: 604 nM
//
compound: Cl.Nc1nccc(-c2c(-c3ccc(F)cc3)ncn2C2CCNCC2)n1 [SB-220025-A]
potency estimated from few doses: 1140 nM

Next compound, potency estimated from few doses to be filled in.
Please state recorded potency estimated from few doses (tested on SIK3) of Cc1occc1-c1nc(N)c(OC[C@@H](N)Cc2c[nH]c3ccccc23)cc1-c1cc2c(C)n[nH]c2cn1 [GSK1660450B]
154 nM

---

System: NLK
Set-up: species or system human, MV4-11 + K-562 + COLO205 + SK-N-BE2 + OVCAR-8
assay-conditions: read-out: apparent Kd; compound concentrations:100 nM and 1000 nM (sheet 'Samples'); n = 1
Label fulfilled when potency estimated from few doses is at or above 300 nM; anything below gets not fulfilled.

Study these solved cases before continuing.
compound: Cl.Nc1nccc(-c2c(-c3ccc(F)cc3)ncn2C2CCNCC2)n1
group: fulfilled

compound: CNc1nccc(-c2c(-c3ccc(F)cc3)ncn2C2CCN(C)CC2)n1
group: not fulfilled

compound: O=c1cc(N2CCOCC2)nc2n(Cc3cccc(Cl)c3Cl)c(C3CC3)nn12 [GSK2358994A]
group: fulfilled

compound: CS(=O)(=O)CCCn1c(=O)c(Oc2ccc(F)cc2F)cc2cnc(NC3CCOCC3)nc21
group: not fulfilled

compound: CC(C)Nc1ncc2cc(Oc3ccc(F)cc3F)c(=O)n(C)c2n1.Cl
group: fulfilled

Check if potency estimated from few doses >= 300 nM (inclusive). Item: N#Cc1cccc(Nc2nccc(-c3cnn4ncccc34)n2)c1 [GW778894X]
fulfilled

---

Tested on: FER
Parameters: species or system human, MV4-11 + K-562 + COLO205 + SK-N-BE2 + OVCAR-8
assay-conditions: read-out: apparent Kd; compound concentrations:100 nM and 1000 nM (sheet 'Samples'); n = 1
Label Criterion met when potency estimated from few doses is at or above 200 nM; anything below gets Criterion not met.

Study these solved cases before continuing.
molecule: CN1CCC(C(=O)Nc2n[nH]c3nc(-c4ccc(O)cc4)c(Br)cc23)CC1.O=C(O)/C=C\C(=O)O [SB-732881-H]
target-system: FER
group: Criterion met
//
molecule: O=C1NC(=O)C(N2CCc3ccccc32)=C1c1ccccc1Cl [SB-373598]
target-system: FER
group: Criterion not met
//
molecule: CC(=O)N[C@@H](Cc1ccc(OP(=O)(O)O)cc1)C(=O)N[C@H]1CCC(=O)N2CCC[C@@H](C(=O)NCc3ccc(Cl)cc3)N2C1=O [RO0325308-000]
target-system: FER
group: Criterion not met
//
molecule: Cl.Cn1c(=O)c(Cc2ccc(F)cc2F)cc2cnc(NC3CCOCC3)nc21 [RO3308757-001]
target-system: FER
group: Criterion met
//
molecule: CNC(=O)c1c(F)cccc1Nc1nc(Nc2cc3c(cc2OC)CCN3C(=O)CN(C)C)nc2[nH]ccc12 [GSK1838705]
target-system: FER
group: Criterion not met
//
molecule: CNC(=O)c1ccccc1Nc1nc(Nc2ccc(N3CCOCC3)cc2)ncc1Cl.Cl [GSK1576028A]
target-system: FER
group: Criterion met

Check if potency estimated from few doses >= 200 nM (inclusive). Item: O=C(Nc1c(F)cccc1F)c1cc(C(=O)c2ccccc2F)c[nH]1 [GSK1326180A]
Criterion met
